- measuredTarget: human M3 muscarinic acetylcholine receptor (hM3) (Homo sapiens, UniProt P20309)
- Sequence (P20309 whole entry): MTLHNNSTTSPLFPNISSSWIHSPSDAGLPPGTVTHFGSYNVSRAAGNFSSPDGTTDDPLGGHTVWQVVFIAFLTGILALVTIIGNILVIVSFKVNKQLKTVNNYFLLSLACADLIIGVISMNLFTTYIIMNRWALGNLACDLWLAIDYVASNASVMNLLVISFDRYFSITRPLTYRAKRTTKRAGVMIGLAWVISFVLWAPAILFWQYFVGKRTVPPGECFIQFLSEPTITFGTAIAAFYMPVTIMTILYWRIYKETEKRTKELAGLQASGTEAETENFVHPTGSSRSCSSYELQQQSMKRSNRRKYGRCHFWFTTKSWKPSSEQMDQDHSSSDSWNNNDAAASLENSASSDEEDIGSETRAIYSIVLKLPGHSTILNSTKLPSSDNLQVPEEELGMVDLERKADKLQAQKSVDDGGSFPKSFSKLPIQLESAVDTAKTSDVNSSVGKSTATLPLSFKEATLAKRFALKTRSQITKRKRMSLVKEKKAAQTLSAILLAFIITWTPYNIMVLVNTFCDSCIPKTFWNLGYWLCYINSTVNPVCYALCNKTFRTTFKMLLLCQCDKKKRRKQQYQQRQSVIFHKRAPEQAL
- assayRemarks: inhibition of [3H]NMS binding, intact CHO cells
measure: IC50 (nM)

{"molecule": "CCCCCCOc1nsnc1C1=CCCN(C)C1 [Xanomeline]", "result": 79.4}
